Tested on: Candida albicans
ASSAY REMARKS: Antifungal activity against Candida albicans ATCC 24433 after 72 hrs by broth microdilution method
Assay type: functional
EXPERIMENTAL PARAMETERS: ATCC 24433, 72 h
QUANTITY NAME: log10 of MFC (log10 of the value in µg/mL)

1) CC(Cc1ccc([Si](C)(C)C)cc1)CN1CCCCC1 (centres undefined); 0.30
2) CC(Cc1ccc([Si](C)(C)C)cc1)CN1CCC(O)CC1 (centres undefined); 0.30
3) CC(Cc1ccc([Si](C)(C)C)cc1)CN1CCCC1 (centres undefined); 0.90
4) CCC(C)(C)c1ccc(CC(C)CN2CC[Si](C)(C)CC2)cc1 (centres undefined); 1.20
5) CNC1CCN(CC(C)Cc2ccc([Si](C)(C)C)cc2)CC1 (centres undefined); 0.90
6) CC(Cc1ccc(C(C)(C)C)cc1)CN1C[C@@H](C)O[C@@H](C)C1 (some centres undefined); 0.60
7) CC(Cc1ccc([Si](C)(C)C)cc1)CN1CC[Si](C)(C)CC1 (centres undefined); 0.90
8) CC(Cc1ccc([Si](C)(C)C)cc1)CN1CCSCC1 (centres undefined); 0.90
9) CC(CNC1CCN(C)CC1)Cc1ccc([Si](C)(C)C)cc1 (centres undefined); 0.90
10) CC(Cc1ccc(C(C)(C)C)cc1)CN1CC[Si](C)(C)CC1 (centres undefined); 0.90
11) CC(Cc1ccc([Si](C)(C)C)cc1)CN1CCOCC1 (centres undefined); 0.90
12) CC(Cc1ccc(C(C)(C)C)cc1)CN1CCCCC1 (centres undefined); -0.30
13) CCN(CC)CC(C)Cc1ccc([Si](C)(C)C)cc1 (centres undefined); 1.51
14) CCC(C)(C)c1ccc(CC(C)CN2C[C@@H](C)O[C@@H](C)C2)cc1 (some centres undefined); 0.90
15) CC(Cc1ccc([Si](C)(C)C)cc1)CN1C[C@@H](C)O[C@@H](C)C1 (some centres undefined); -0.30
16) OC(Cn1cncn1)(Cn1cncn1)c1ccc(F)cc1F; 0.60

* * *

Tested on: Aspergillus niger
ASSAY REMARKS: Antifungal activity against Aspergillus niger ATCC 10578 after 48 hrs by broth microdilution method
Format: functional, organism-based
EXPERIMENTAL PARAMETERS: ATCC 10578, 48 h
Listed here: items and their measured MIC.
QUANTITY NAME: MIC (µg/mL)

1. CC(Cc1ccc(C(C)(C)C)cc1)CN1C[C@@H](C)O[C@@H](C)C1 (some centres undefined); 4
2. CNC1CCN(CC(C)Cc2ccc([Si](C)(C)C)cc2)CC1 (centres undefined); 2
3. CC(CNC1CCN(C)CC1)Cc1ccc([Si](C)(C)C)cc1 (centres undefined); 8
4. CC(Cc1ccc([Si](C)(C)C)cc1)CN1CCCC1 (centres undefined); 64
5. CC(Cc1ccc(C(C)(C)C)cc1)CN1CC[Si](C)(C)CC1 (centres undefined); 32
6. CC(Cc1ccc([Si](C)(C)C)cc1)CN1CCC(O)CC1 (centres undefined); 0.5
7. CC(Cc1ccc([Si](C)(C)C)cc1)CN1CCOCC1 (centres undefined); 128
8. CC(Cc1ccc([Si](C)(C)C)cc1)CN1CCCCC1 (centres undefined); 64
9. CC(Cc1ccc(C(C)(C)C)cc1)CN1CCCCC1 (centres undefined); 32
10. CCN(CC)CC(C)Cc1ccc([Si](C)(C)C)cc1 (centres undefined); 256
11. CC(Cc1ccc([Si](C)(C)C)cc1)CN1CC[Si](C)(C)CC1 (centres undefined); 2
12. CC(Cc1ccc([Si](C)(C)C)cc1)CN1CCSCC1 (centres undefined); 2
13. CC(Cc1ccc([Si](C)(C)C)cc1)CN1C[C@@H](C)O[C@@H](C)C1 (some centres undefined); 2
14. CCC(C)(C)c1ccc(CC(C)CN2CC[Si](C)(C)CC2)cc1 (centres undefined); 0.5
15. CCC(C)(C)c1ccc(CC(C)CN2C[C@@H](C)O[C@@H](C)C2)cc1 (some centres undefined); 0.5

* * *

System: Candida tropicalis
ASSAY REMARKS: Antifungal activity against Candida tropicalis ATCC 750 after 24 to 36 hrs by broth microdilution method
Format: functional, organism-based
Category key, based on recorded IC50: class 0 = under 0.2 µg/mL, class 1 = from 0.2 µg/mL up to 5 µg/mL, class 2 = 5 µg/mL and over

1. CC(Cc1ccc([Si](C)(C)C)cc1)CN1C[C@@H](C)O[C@@H](C)C1 (stereo partly specified); class 0
2. OC(Cn1cncn1)(Cn1cncn1)c1ccc(F)cc1F [FLUCONAZOLE]; class 2
3. CC(Cc1ccc([Si](C)(C)C)cc1)CN1CCCCC1 (stereo unspecified); class 1
4. CC(Cc1ccc([Si](C)(C)C)cc1)CN1CC[Si](C)(C)CC1 (stereo unspecified); class 2
5. CC(Cc1ccc([Si](C)(C)C)cc1)CN1CCOCC1 (stereo unspecified); class 1
6. CCN(CC)CC(C)Cc1ccc([Si](C)(C)C)cc1 (stereo unspecified); class 1
7. CC(Cc1ccc([Si](C)(C)C)cc1)CN1CCSCC1 (stereo unspecified); class 1
8. CCC(C)(C)c1ccc(CC(C)CN2C[C@@H](C)O[C@@H](C)C2)cc1 (stereo partly specified) [AMOROLFINE]; class 0
9. CC(CNC1CCN(C)CC1)Cc1ccc([Si](C)(C)C)cc1 (stereo unspecified); class 1
10. CCC(C)(C)c1ccc(CC(C)CN2CC[Si](C)(C)CC2)cc1 (stereo unspecified); class 2
11. CNC1CCN(CC(C)Cc2ccc([Si](C)(C)C)cc2)CC1 (stereo unspecified); class 2
12. CC(Cc1ccc([Si](C)(C)C)cc1)CN1CCCC1 (stereo unspecified); class 1
13. CC(Cc1ccc(C(C)(C)C)cc1)CN1CCCCC1 (stereo unspecified) [FENPROPIDIN]; class 0
14. CC(Cc1ccc(C(C)(C)C)cc1)CN1C[C@@H](C)O[C@@H](C)C1 (stereo partly specified) [FENPROPIMORPH]; class 0
15. CC(Cc1ccc(C(C)(C)C)cc1)CN1CC[Si](C)(C)CC1 (stereo unspecified); class 2

* * *

System: Cryptococcus neoformans
ASSAY REMARKS: Antifungal activity against Cryptococcus neoformans ATCC 34664 after 24 to 36 hrs by broth microdilution method
Format: functional, organism-based
Simple rule here: IC50 less than 0.9 µg/mL is yes, otherwise no.

1. CC(Cc1ccc(C(C)(C)C)cc1)CN1CCCCC1 (stereo not given) [FENPROPIDIN]; yes
2. CC(Cc1ccc([Si](C)(C)C)cc1)CN1CCSCC1 (stereo not given); yes
3. CCN(CC)CC(C)Cc1ccc([Si](C)(C)C)cc1 (stereo not given); no
4. OC(Cn1cncn1)(Cn1cncn1)c1ccc(F)cc1F [FLUCONAZOLE]; no
5. CC(CNC1CCN(C)CC1)Cc1ccc([Si](C)(C)C)cc1 (stereo not given); no
6. CC(Cc1ccc([Si](C)(C)C)cc1)CN1C[C@@H](C)O[C@@H](C)C1 (stereo not given in full); yes
7. CC(Cc1ccc([Si](C)(C)C)cc1)CN1CC[Si](C)(C)CC1 (stereo not given); no
8. CNC1CCN(CC(C)Cc2ccc([Si](C)(C)C)cc2)CC1 (stereo not given); no
9. CCC(C)(C)c1ccc(CC(C)CN2C[C@@H](C)O[C@@H](C)C2)cc1 (stereo not given in full) [AMOROLFINE]; yes

* * *

Tested on: Candida albicans
ASSAY REMARKS: Antifungal activity against Candida albicans ATCC 24433 after 72 hrs by broth microdilution method
Type: functional
EXPERIMENTAL PARAMETERS: ATCC 24433, 72 h
QUANTITY NAME: MFC

1. CC(Cc1ccc([Si](C)(C)C)cc1)CN1CCS(=O)(=O)CC1 (stereo not drawn); ≥ 256 mg/L
2. CC(Cc1ccc(C(C)(C)C)cc1)C(=O)N1CC[Si](C)(C)CC1 (stereo not drawn); ≥ 256 mg/L
3. CC(Cc1ccc(C(C)(C)C)cc1)C(=O)NC[Si](C)(C)c1ccccc1 (stereo not drawn); ≥ 256 mg/L

* * *

Tested on: Aspergillus niger
ASSAY REMARKS: Antifungal activity against Aspergillus niger ATCC 10578 after 48 hrs by broth microdilution method
Format: functional, organism-based
EXPERIMENTAL PARAMETERS: ATCC 10578, 48 h
Listed here: items and their measured MIC.
QUANTITY NAME: MIC

1. CC(Cc1ccc(C(C)(C)C)cc1)C(=O)N1CC[Si](C)(C)CC1 (centres undefined); ≥ 256 µg/mL
2. CC(Cc1ccc([Si](C)(C)C)cc1)CN1CCS(=O)(=O)CC1 (centres undefined); ≥ 256 µg/mL
3. CC(Cc1ccc(C(C)(C)C)cc1)C(=O)NC[Si](C)(C)c1ccccc1 (centres undefined); ≥ 256 µg/mL
4. OC(Cn1cncn1)(Cn1cncn1)c1ccc(F)cc1F; > 256 µg/mL
